Consider the following molecules and their measured IC50 readings.
tested on: CCRF-CEM; test: Inhibition against […]-T-Cell leukemic cell line; assay type: functional, cell-based; conditions: Homo sapiens

{"Molecule": "CC[C@]1(O)C[C@@H]2CN(CCc3c([nH]c4ccccc34)[C@@](C(=O)OC)(c3cc4c(cc3OC)N(C)[C@H]3[C@@](O)(C(=O)OC)[C@H](OC(C)=O)[C@]5(CC)C=CCN6CC[C@]43[C@@H]65)C2)C1", "Measurement type": "IC50", "Observed value": "0.1 µg/mL"}
{"Molecule": "CC[C@]12CN3CCc4c([nH]c5ccccc45)[C@@](C(=O)OC)(c4cc5c(cc4OC)N(C)[C@H]4[C@@](O)(C(=O)OC)[C@H](OC(C)=O)[C@]6(CC)C=CCN7CC[C@]54[C@@H]76)C[C@@H](C3)[C@H]1O2.CC[C@]12CN3CCc4c([nH]c5ccccc45)[C@@](C(=O)OC)(c4cc5c(cc4OC)N(C)[C@H]4[C@@](O)(C(=O)OC)[C@H](OC(C)=O)[C@]6(CC)C=CCN7CC[C@]54[C@@H]76)C[C@@H](C3)[C@H]1O2.O=S(=O)(O)O [VINLEUROSINE SULFATE]", "Measurement type": "IC50", "Observed value": "0.4 µg/mL"}
{"Molecule": "CCC(=O)CC1CN(C=O)CCc2c([nH]c3ccccc23)[C@@](C(=O)OC)(c2cc3c(cc2OC)N(C)C2C4(C(=O)OC)OC5C=CN6CCC32C6[C@]5(CC)C4OC(C)=O)C1 (stereo not given in full)", "Measurement type": "IC50", "Observed value": "14 µg/mL"}
{"Molecule": "CC[C@]1(O)C[C@H]2CN(CCc3c([nH]c4ccccc34)[C@@](C(=O)OC)(c3cc4c(cc3OC)N(C=O)[C@H]3[C@@](O)(C(=O)OC)[C@H](OC(C)=O)[C@]5(CC)C=CCN6CC[C@]43[C@@H]65)C2)C1", "Measurement type": "IC50", "Observed value": "0.025 µg/mL"}

Read the next record carefully.
Record for CCC(=O)C[C@@H]1CN(C=O)CCc2c([nH]c3ccccc23)[C@@](C(=O)OC)(c2cc3c(cc2OC)N(C)[C@H]2[C@@](O)(C(=O)OC)[C@H](OC(C)=O)[C@]4(CC)C=CCN5CC[C@]32[C@@H]54)C1 under target or system CCRF-CEM: IC50 reported as 7.7 µg/mL
